- protocol description: soluble on expression in E. coli; label from the status in PepcDB or PDB records

biosequence: MGSDKIHHHHHHMLFFSFILLPELDVTMEDSGRRIKNEYRAWKERKMTKLTVGLALGSGAAKGWAHIGVLNGLAKLDIYPDKVAGCSVGALVGAAYANNHLGELETWVSGFSSWDVLGLMDLGWRKGGLISGEKVFDVLANRIGDIDIEQLNRPFAAVATDLYSGQEIWFKEGDLRHAVRASCSMPGFLPPVQQGHRWVVDGAVVNPVPVSLARSMGVDVVIAVDLNGHRRGQMHLIPEQVKSRKASKSEPIDEKRELESGFMDLWGKGKDYMNGLTDKFSLGSSKSHPGMLAVMSQSMDILEQRHKRSRLMGEPPDICIVPDVGDIGTMEFHRAKEAIKAGEQAVNDIKHLIEATLK
soluble on expression in E. coli: not soluble

biosequence: MGSDKIHHHHHHNEAQVSAVKQFVEGFNQKNVQSMQSHTTDDVKWFSISEGAMALETSDKEELGEAMQNYFSGYSSAHAKIVNLVNSGDFISTVEQVKWQNEGKWFMQCSLGVYRFKQNKIASVWYYPAHVCDATNAQVN
soluble on expression in E. coli: not soluble

----------
- protocol description: soluble on expression in E. coli; label from the status in PepcDB or PDB records

biosequence: GQPMNVTLQDDTQTLQEVVVTALGMKRATKALGYAVTEIKSDELNSNVVNPVSALQGKVAGVEISAGDGGLFGSSKILIRGASTLGSNNQPIYVVDGVILDNAIKNGDADWAANDTDWGNELKNLNPDDFESVSVLKGAAATALYGSRGLNGAVVITTKSGKGKK
soluble on expression in E. coli: not soluble

biosequence: MKNNRYSPDWPQLALQKKQSVNWVCERCGVQCLKPGEGKGLSTGDRYRLRMAVHHCDYDPSNNYPSNLMALCSPCHLYYHRRQRGNVTPGQLTLKFCLEHHHHHH
soluble on expression in E. coli: not soluble

----------
- protocol description: soluble on expression in E. coli; label from the status in PepcDB or PDB records
measurement kind: soluble on expression in E. coli

Study these solved cases before continuing.
biosequence: MSSQSNTGNSIEAPQLPIPGQTNGSANVTVDGAGVNVGIQNGSQGQKTGMDLYFDQALNYMGEHPVITGFGAFLTLYFTAGAYKSISKGLNGGKSTTAFLKGGFDPKMNSKEALQILNLTENTLTKKKLKEVHRKIMLANHPDKGGSPFLATKINEAKDFLEKRGISK
soluble on expression in E. coli: soluble

biosequence: METSNFVKQLSSNNRKTRVNALEALKKYLTAKQFKENKQIEFNKLWKGLYYAMWFSDRPRPQQRLANELGELHGLYFDPKDNSTADELTTNDKAFIKFSRGFWKVMCFEWFNIDRYRLDKYLLLIRRVLFSQLKYLQSRNWDKKLVDEYIKKVLRWLPLSGSPKVYTGIPIHIVDILLDEWERLLKDGDEDDEDEENKEEEMRKIAESAKKTPLADVIAIFQDIVADYNNSKVLREKIKEDLFSDTRLVSWDILEGETQHNDSSNESEEEEEEEWKGF
soluble on expression in E. coli: not soluble

biosequence: MVSKELVVCHLYGNLLNTYGDNGNLLMLKYLTEKMGVTFRSEIISIYEPFDPEKYDLVFVGGGQDFEQLIISEDIQNKKEALTSYIENDGVLLAICGGYQLLGHYYVGAQGEKIKGIGALDHYTLSQDNNRFIGDIEIYNEEFDETYYGFENHNGMTFLGEGERPLGTVKQGKGNNGQDNGEGVVYKNVFGSYFHGPILARNKNLGIRLIRTALEKKYGEPIAIPETLYK
soluble on expression in E. coli: not soluble

biosequence: MPSISKTKSGERYRAPTDQARKMDRKKENKRNKKDRQQIRQAMAKYCNLDETTSKLLALERQILGLDPQPFHIDVLRKKQKVLTDSINKRRMTLQQGKEDAELKKFNDKINAYQSDCQKLAVLAQQARLAREADPDMIPLPMGDVSTAGPERNNQLLAPAMIKRKVEFQLPPRPVRVAGQKPPGPPCGLAPNFSDSEEEEEEVHDDHYDDIDLAPVPIPEFDNPYQPIHRNYGPPSSYNSMPTRMPHHHHHHHPHASSHYNPMGFQNHHEEAVISSAPQINRSNEPAAPATLSAAPELRNLRRETVKLVPAQLLRRPGDNKTIVPRQAAPVQRRPEVQKQAKNTDEAYNDFMKELDGLI
soluble on expression in E. coli: not soluble

For each of the sequences below, state soluble on expression in E. coli.
1. MSTKLYYIYDPMCSWCWGYRPVWDLLQQHLPKSIDVEYVAGGLAPDSDSAMPIDQQQMIQNHWRTIEQKLGTKFNYDFWRENTARRSTYNACRAAIAAHKQSCQKAMIDAIQQAYYLRALNPSDVDVLVSVAKELSEQTSPTLDVAQFIVDINSSETNKELAKQVTLARELTQQGFPSLVLDVDGVIQQIPLDYSDYKTTLAYIIKKTS
2. MSLKIRQARLEDLDRIVELEFENFSVEEAIPPSVFEAHLREIQTSFLVAEKEGRIMGYIEGPVGLHRHLQDQSFTEEIKDYSHEPGGYISVTCLSIAKEAQGLGLGQKLLTALKEVALEDERDGINLTCHDYLIAYYEKHGFVNEGQSQSTFAGETWYDMVWEMKKEGHHHHHH

Reply:
1. not soluble
2. soluble

// provenance: the DeepSol protein solubility set
